Tested on: Pseudomonas aeruginosa
test.method.notes: Antimicrobial activity against Pseudomonas aeruginosa 25349 assessed as increase in absorbance incubated for 20 to 22 hrs
Format: functional
assay.conditions: time 20-22 hrs
Recorded measurements of MIC, one per entry

molecule	target.of.assay	reading.qualifier	MIC [µM]
O=C(O)c1cn(C2CC2)c2cc(N3CCNCC3)c(F)cc2c1=O	Pseudomonas aeruginosa	=	0.25
CC(C)(O/N=C(\C(=O)N[C@@H]1C(=O)N2C(C(=O)[O-])=C(C[n+]3ccccc3)CS[C@H]12)c1csc(N)n1)C(=O)O	Pseudomonas aeruginosa	=	0.5
CC1(C)S[C@@H]2[C@H](NC(=O)Cc3ccccc3)C(=O)N2[C@H]1C(=O)O [PENICILLIN G SODIUM]	Pseudomonas aeruginosa	>	64
CNC(C)[C@@H]1CC[C@@H](N)[C@@H](O[C@H]2[C@H](O)[C@@H](O[C@H]3OC[C@](C)(O)[C@H](NC)[C@H]3O)[C@H](N)C[C@@H]2N)O1.CN[C@@H]1[C@@H](O)[C@@H](O[C@@H]2[C@@H](O)[C@H](O[C@H]3O[C@H](C(C)N)CC[C@H]3N)[C@@H](N)C[C@H]2N)OC[C@]1(C)O.CN[C@@H]1[C@@H](O)[C@@H](O[C@@H]2[C@@H](O)[C@H](O[C@H]3O[C@H](CN)CC[C@H]3N)[C@@H](N)C[C@H]2N)OC[C@]1(C)O (stereo not given in full)	Pseudomonas aeruginosa	=	0.25
CCCCCCCCCC(=O)NCCCC[C@H](NC(=O)[C@@H](N)CSSC[C@H](N)C(=O)N[C@@H](CCCCNC(=O)CCCCCCCCC)C(=O)NCC(=O)NCC(=O)NCC(=O)N[C@H](CCCNC(=N)N)C(=O)N[C@@H](CCCNC(=N)N)C(=O)N[C@@H](CCCNC(=N)N)C(=O)N1CCC[C@H]1C(=O)O)C(=O)NCC(=O)NCC(=O)NCC(=O)N[C@H](CCCNC(=N)N)C(=O)N[C@@H](CCCNC(=N)N)C(=O)N[C@@H](CCCNC(=N)N)C(=O)N1CCC[C@H]1C(=O)O	Pseudomonas aeruginosa	=	4

---

Recorded measurements of MIC, one per entry
Test system: Pseudomonas aeruginosa
test.method.notes: Antimicrobial activity against Pseudomonas aeruginosa 25349 assessed as increase in absorbance incubated for 20 to 22 hrs
Type: functional
assay.conditions: time 20-22 hrs
measured.quantity: MIC (µM)

molecule	reading.qualifier	value.observed
CCCCCCCCCC(=O)NCCCC[C@H](N)C(=O)NCC(=O)NCC(=O)NCC(=O)N[C@H](CCCNC(=N)N)C(=O)N[C@@H](CCCNC(=N)N)C(=O)N[C@@H](CCCNC(=N)N)C(=O)N1CCC[C@H]1C(=O)N[C@@H](CSSC[C@H](NC(=O)[C@@H]1CCCN1C(=O)[C@H](CCCNC(=N)N)NC(=O)[C@H](CCCNC(=N)N)NC(=O)[C@@H](CCCNC(=N)N)NC(=O)CNC(=O)CNC(=O)CNC(=O)[C@@H](N)CCCCNC(=O)CCCCCCCCC)C(=O)O)C(=O)O	=	4
CN[C@H](CC(C)C)C(=O)N[C@H]1C(=O)N[C@@H](CC(N)=O)C(=O)N[C@H]2C(=O)N[C@H]3C(=O)N[C@H](C(=O)N[C@H](C(=O)O)c4cc(O)cc(O)c4-c4cc3ccc4O)[C@H](O)c3ccc(c(Cl)c3)Oc3cc2cc(c3O[C@@H]2O[C@H](CO)[C@@H](O)[C@H](O)[C@H]2O[C@H]2C[C@](C)(N)[C@H](O)[C@H](C)O2)Oc2ccc(cc2Cl)[C@H]1O [VANCOMYCIN]	>	64
CC[C@H]1OC(=O)[C@H](C)[C@@H](O[C@H]2C[C@@](C)(OC)[C@@H](O)[C@H](C)O2)[C@H](C)[C@@H](O[C@@H]2O[C@H](C)C[C@H](N(C)C)[C@H]2O)[C@](C)(O)C[C@@H](C)C(=O)[C@H](C)[C@@H](O)[C@]1(C)O [ERYTHROMYCIN]	=	64
